Entries and their measured HDL-cholesterol change relative to control (%) follow.
Species on record: Rattus norvegicus
ASSAY TEXT: Activity to induce the elevation of HDL(High Density Lipoproteins)-Cholesterol of male Wistar rats
Assay type: functional
Design: concentration or dose not given beside the values
Return type: number; implicit unit %.

Please review the entries below; each comes with its answer.
compound="CCCCOP(=O)(OCCCC)OC(c1ccc(Cl)cc1)P(=O)(OCCCC)OCCCC (stereo not given)" measured_result=-10
compound="CCCOP(=O)(OCCC)OC(c1ccc(Cl)cc1)P(=O)(OCCC)OCCC (stereo not given)" measured_result=-6
compound=CC(C)OP(=O)(OC(C)C)C(Cc1ccc(Cl)cc1)P(=O)(OC(C)C)OC(C)C measured_result=12
compound="COP(=O)(OC)OC(CC(C)(C)C)P(=O)(OC)OC (stereo not given)" measured_result=47

Now for another entry.
Data request, read-out HDL-cholesterol change relative to control (%), for `O=P(O)(O)C(CCc1ccccc1)P(=O)(O)O`
-24

----------
Species on record: Rattus norvegicus
ASSAY TEXT: Activity to induce the elevation of alpha/beta cholesterol ratio of male Wistar rats
Type: functional
Set-up: concentration or dose not given beside the values
MEASURE: Percent change in alpha/beta cholesterol ratio versus control (%)
Write the value in % as a bare number.

For orientation, consider the following solved cases.
compound="CC(C)OP(=O)(OC(C)C)OC(c1ccc(Cl)cc1)P(=O)(OC(C)C)OC(C)C (configuration not stated)" measured_result=-46
compound="COP(=O)(OC)OC(c1cccc(Br)c1)P(=O)(OC)OC (configuration not stated)" measured_result=71
compound=O=P(O)(O)C(Cc1ccc(Cl)cc1)P(=O)(O)O measured_result=-40

Consider the compound `COP(=O)(OC)C(O)(c1ccc2ccccc2c1)P(=O)(OC)OC` and give its measured Percent change in alpha/beta cholesterol ratio versus control.
51

// returns reported Percent change in alpha/beta cholesterol ratio versus control for input COP(=O)(OC)OC(c1cccc(Cl)c1)P(=O)(OC)OC (configuration not stated)
69

# get_value(readout='Percent change in alpha/beta cholesterol ratio versus control', item= `COP(=O)(OC)C(O)(c1ccc(-c2ccccc2)cc1)P(=O)(OC)OC` )
5

Query: Percent change in alpha/beta cholesterol ratio versus control; subject: `CCCCCC(O)(P(=O)(OC)OC)P(=O)(OC)OC`
-17

----------
Species: Rattus norvegicus
ASSAY TEXT: Activity to induce the elevation of triglycerides of male Wistar rats
Assay type: functional
Parameters: concentration or dose not given beside the values
Measured Percent change in plasma triglycerides versus control by item
Give the quantity in %, number only.

Below, each entry is followed by its recorded Percent change in plasma triglycerides versus control result.
compound="CCCOP(=O)(OCCC)OC(c1ccc(Cl)cc1)P(=O)(OCCC)OCCC (centres undefined)" measured_result=-17
compound=COP(=O)(OC)C(O)(c1ccc(C(=O)c2ccc(Cl)cc2)cc1)P(=O)(OC)OC measured_result=-16

Requested read-out: Percent change in plasma triglycerides versus control. Entry: `COP(=O)(OC)C(O)(c1ccc(C)cc1)P(=O)(OC)OC`
43

Look up Percent change in plasma triglycerides versus control: `COP(=O)(OC)C(Cc1ccccc1)P(=O)(OC)OC`
-3

Fill in: Percent change in plasma triglycerides versus control of `CCOP(=O)(OCC)C(CCCOc1ccccc1)P(=O)(OCC)OCC` is ___
0

Entry under review: CC(C)OP(=O)(OC(C)C)OC(c1ccc(Cl)cc1)P(=O)(OC(C)C)OC(C)C (centres undefined) . Reported Percent change in plasma triglycerides versus control?
-37

Record request: Percent change in plasma triglycerides versus control value, item COP(=O)(OC)OC(c1ccc(-c2ccccc2)cc1)P(=O)(OC)OC (centres undefined)
0

Can you share its Percent change in plasma triglycerides versus control? I mean this compound: COP(=O)(OC)OC(C(C)(C)Cc1ccc(Cl)cc1)P(=O)(OC)OC (centres undefined)
-19

I'd like to know its Percent change in plasma triglycerides versus control. The compound in question is `CCOP(=O)(OCC)C(Cc1ccccc1)P(=O)(OCC)OCC`
-47

Record request: Percent change in plasma triglycerides versus control value, item `CCOP(=O)(OCC)C(Cc1ccc(Cl)cc1)P(=O)(OCC)OCC`
8

Param item = COP(=O)(OC)OC(c1cccc(Cl)c1)P(=O)(OC)OC (centres undefined) ; retrieve measured Percent change in plasma triglycerides versus control.
-37

Find the recorded Percent change in plasma triglycerides versus control belonging to `CCOP(=O)(OCC)C(CCOc1ccccc1)P(=O)(OCC)OCC` and report it.
-38

State the recorded Percent change in plasma triglycerides versus control for this entry: `COP(=O)(OC)C(CCc1ccccc1)P(=O)(OC)OC`
22

I have this compound here, COP(=O)(OC)OC(c1cccc(Br)c1)P(=O)(OC)OC (centres undefined) , and I need its recorded Percent change in plasma triglycerides versus control.
14

Any idea what its Percent change in plasma triglycerides versus control is? The compound is `CCCCCC(O)(P(=O)(OC)OC)P(=O)(OC)OC`
-21

Given COP(=O)(OC)OC(c1ccccc1Cl)P(=O)(OC)OC (centres undefined) , state its recorded Percent change in plasma triglycerides versus control.
-42

Fill in the blank: the reported Percent change in plasma triglycerides versus control of `COP(=O)(OC)C(O)(c1ccc2ccccc2c1)P(=O)(OC)OC` is ____.
24

Any idea what Percent change in plasma triglycerides versus control was measured for COP(=O)(OC)OC(c1cc(C)ccc1C)P(=O)(OC)OC (centres undefined) ?
-3

Quick one: Percent change in plasma triglycerides versus control for CCCCOP(=O)(OCCCC)OC(c1ccc(Cl)cc1)P(=O)(OCCCC)OCCCC (centres undefined) ?
-11
